details: in acetone, 293.15 K
REPORTED ENDPOINT: solubility (mole fraction)

get_value(item= `Nc1ccc(S(=O)(=O)O)cc1` , readout=solubility (mole fraction)) returns 0.00031

---

settings: in acetone, 323.15 K
REPORTED ENDPOINT: solubility (mole fraction)
The reply should be a number, written without any unit.

get_value(item= `Nc1ccc(S(=O)(=O)O)cc1` , readout=solubility (mole fraction)) returns 0.000353

---

conditions: in acetone, 308.15 K
REPORTED ENDPOINT: solubility (mole fraction)
The reply should be a number, written without any unit.

get_value(item= `Nc1ccc(S(=O)(=O)O)cc1` , readout=solubility (mole fraction)) returns 0.000332

---

settings: in acetonitrile, 298.15 K
REPORTED ENDPOINT: solubility (mole fraction)
The reply should be a number, written without any unit.

get_value(item= `Nc1ccc(S(=O)(=O)O)cc1` , readout=solubility (mole fraction)) returns 0.000195

---

settings: in isopropanol, 323.15 K
REPORTED ENDPOINT: solubility (mole fraction)
The reply should be a number, written without any unit.

get_value(item= `Nc1ccc(S(=O)(=O)O)cc1` , readout=solubility (mole fraction)) returns 0.000494

---

conditions: in formic acid, 328.15 K
REPORTED ENDPOINT: solubility (mole fraction)
The reply should be a number, written without any unit.

get_value(item= `Nc1ccc(S(=O)(=O)O)cc1` , readout=solubility (mole fraction)) returns 0.00247

---

details: in isopropanol, 303.15 K
REPORTED ENDPOINT: solubility (mole fraction)
The reply should be a number, written without any unit.

get_value(item= `Nc1ccc(S(=O)(=O)O)cc1` , readout=solubility (mole fraction)) returns 0.000373

---

details: in formic acid, 278.15 K
REPORTED ENDPOINT: solubility (mole fraction)
The reply should be a number, written without any unit.

get_value(item= `Nc1ccc(S(=O)(=O)O)cc1` , readout=solubility (mole fraction)) returns 0.00106

---

conditions: in ethanol, 283.15 K
REPORTED ENDPOINT: solubility (mole fraction)
The reply should be a number, written without any unit.

get_value(item= `Nc1ccc(S(=O)(=O)O)cc1` , readout=solubility (mole fraction)) returns 0.000231

---

conditions: in methanol, 323.15 K
REPORTED ENDPOINT: solubility (mole fraction)

get_value(item= `Nc1ccc(S(=O)(=O)O)cc1` , readout=solubility (mole fraction)) returns 0.000432

---

conditions: in ethanol, 328.15 K
REPORTED ENDPOINT: solubility (mole fraction)
The reply should be a number, written without any unit.

get_value(item= `Nc1ccc(S(=O)(=O)O)cc1` , readout=solubility (mole fraction)) returns 0.000403

---

details: in ethanol, 288.15 K
REPORTED ENDPOINT: solubility (mole fraction)

get_value(item= `Nc1ccc(S(=O)(=O)O)cc1` , readout=solubility (mole fraction)) returns 0.000251

---

settings: in isopropanol, 328.15 K
REPORTED ENDPOINT: solubility (mole fraction)

get_value(item= `Nc1ccc(S(=O)(=O)O)cc1` , readout=solubility (mole fraction)) returns 0.000525

---

settings: in methanol, 288.15 K
REPORTED ENDPOINT: solubility (mole fraction)
The reply should be a number, written without any unit.

get_value(item= `Nc1ccc(S(=O)(=O)O)cc1` , readout=solubility (mole fraction)) returns 0.000284

---

conditions: in ethanol, 278.15 K
REPORTED ENDPOINT: solubility (mole fraction)
The reply should be a number, written without any unit.

get_value(item= `Nc1ccc(S(=O)(=O)O)cc1` , readout=solubility (mole fraction)) returns 0.000213

---

details: in methanol, 303.15 K
REPORTED ENDPOINT: solubility (mole fraction)

get_value(item= `Nc1ccc(S(=O)(=O)O)cc1` , readout=solubility (mole fraction)) returns 0.000342

---

conditions: in ethanol, 318.15 K
REPORTED ENDPOINT: solubility (mole fraction)
The reply should be a number, written without any unit.

get_value(item= `Nc1ccc(S(=O)(=O)O)cc1` , readout=solubility (mole fraction)) returns 0.000363

---

conditions: in acetonitrile, 293.15 K
REPORTED ENDPOINT: solubility (mole fraction)
The reply should be a number, written without any unit.

get_value(item= `Nc1ccc(S(=O)(=O)O)cc1` , readout=solubility (mole fraction)) returns 0.000178
